# credit: BindingDB's records for patent US10494376

- target-under-test: Protein arginine N-methyltransferase 5 (Homo sapiens, UniProt O14744)
- Sequence (O14744 whole entry): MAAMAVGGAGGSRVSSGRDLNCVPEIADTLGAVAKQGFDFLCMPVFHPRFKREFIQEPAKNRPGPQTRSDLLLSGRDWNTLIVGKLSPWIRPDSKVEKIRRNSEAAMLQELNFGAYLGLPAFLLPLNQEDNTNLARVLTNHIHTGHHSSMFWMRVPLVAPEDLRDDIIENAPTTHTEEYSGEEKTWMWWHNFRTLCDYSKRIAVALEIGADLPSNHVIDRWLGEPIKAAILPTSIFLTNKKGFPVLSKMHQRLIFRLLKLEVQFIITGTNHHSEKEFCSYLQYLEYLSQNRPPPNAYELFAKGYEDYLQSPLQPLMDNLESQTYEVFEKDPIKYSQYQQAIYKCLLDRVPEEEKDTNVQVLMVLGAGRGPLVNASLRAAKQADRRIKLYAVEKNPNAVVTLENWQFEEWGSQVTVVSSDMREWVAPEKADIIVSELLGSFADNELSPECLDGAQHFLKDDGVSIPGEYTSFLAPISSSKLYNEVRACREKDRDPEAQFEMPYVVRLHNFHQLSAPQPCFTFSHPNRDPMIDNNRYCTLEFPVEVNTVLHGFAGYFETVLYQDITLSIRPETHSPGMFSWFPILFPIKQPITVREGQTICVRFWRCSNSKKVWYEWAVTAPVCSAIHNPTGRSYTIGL
endpoint-label: pIC50
// pIC50 here means minus log10 of the molar concentration (mol/L)

// query Value wanted: pIC50 (Protein arginine N-methyltransferase 5 (Homo sapiens, UniProt O14744)) of entry COC(=O)N1CCC(N(C)C(=O)c2ccc(C(=O)NC[C@@H](O)[C@@H]3Cc4ccccc4CN3)cc2)CC1
// result 4.93
